Provenance of the data: ChEMBL document CHEMBL1137627

MEASURED ON: Aurora kinase A (Homo sapiens)
Sequence (O14965 whole entry): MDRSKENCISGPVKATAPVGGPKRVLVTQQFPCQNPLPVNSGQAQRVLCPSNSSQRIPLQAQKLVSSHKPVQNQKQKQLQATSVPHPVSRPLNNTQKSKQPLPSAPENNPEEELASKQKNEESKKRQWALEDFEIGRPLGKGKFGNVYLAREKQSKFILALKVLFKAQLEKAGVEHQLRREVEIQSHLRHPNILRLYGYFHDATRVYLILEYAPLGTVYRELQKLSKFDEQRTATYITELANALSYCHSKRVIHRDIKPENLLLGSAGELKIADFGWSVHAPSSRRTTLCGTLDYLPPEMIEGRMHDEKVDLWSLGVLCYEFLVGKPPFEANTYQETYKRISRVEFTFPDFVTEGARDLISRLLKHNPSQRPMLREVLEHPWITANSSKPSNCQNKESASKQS
READOUT NAME: IC50 (µM)

Query: IC50; subject: CN(C)c1ccc(-c2nc3cccnc3[nH]2)cc1
4.3

Reported IC50 for COc1cc2ncnc(N3CCN(C(C)c4ccccc4)CC3)c2cc1OC (configuration not stated) : what is it?
25

Quick one: IC50 of COc1cccc(-c2nc3ncccc3[nH]2)c1 ?
16

Item COc1cc2ncnc(N3CCN(Cc4cccc5ccccc45)CC3)c2cc1OC has what recorded IC50?
9.6

Value lookup for IC50; key = c1cnc2nc(-c3ccc(N4CCCC4)cc3)[nH]c2c1
4.6

Entry under review: Cc1ccnc2nc(-c3ccc(N(C)C)cc3)[nH]c12 . Reported IC50?
7

[A] CN(C)c1ccc(-c2nc3cc[nH]cc-3n2)cc1
[B] COc1ccc(-c2cnc3nc(-c4ccc(N(C)C)cc4)[nH]c3c2)cc1
[C] CN(C)c1ccc(-c2nc3ncc(Br)cc3[nH]2)cc1
[D] COc1cc2ncnc(N3CCN(CCc4ccccc4)CC3)c2cc1OC
Thanks in advance: please rank these 4 entries by IC50, highest to lowest. # respond with the labels, arranged in the requested order
D, B, A, C

###

MEASURED ON: Aurora kinase A (Homo sapiens)
PROTOCOL DESCRIPTION: Inhibition of aurora A kinase at 10 uM
READOUT NAME: inhibition (%)

Request the reported inhibition associated with CN(C)c1ccc(-c2nc3cc(-c4cccc(O)c4)cnc3[nH]2)cc1
31

[a] CN(C)c1ccc(-c2nc3cc(-c4cccs4)cnc3[nH]2)cc1
[b] CN(C)c1ccccc1-c1nc2cccnc2[nH]1
Endpoint returns the identifier whose inhibition is numerically larger, either a or b . Identify your pick by its label.
a
(a: 34%, b: 20%)

###

MEASURED ON: Aurora kinase A (Homo sapiens) (UniProt O14965)
Sequence (whole entry): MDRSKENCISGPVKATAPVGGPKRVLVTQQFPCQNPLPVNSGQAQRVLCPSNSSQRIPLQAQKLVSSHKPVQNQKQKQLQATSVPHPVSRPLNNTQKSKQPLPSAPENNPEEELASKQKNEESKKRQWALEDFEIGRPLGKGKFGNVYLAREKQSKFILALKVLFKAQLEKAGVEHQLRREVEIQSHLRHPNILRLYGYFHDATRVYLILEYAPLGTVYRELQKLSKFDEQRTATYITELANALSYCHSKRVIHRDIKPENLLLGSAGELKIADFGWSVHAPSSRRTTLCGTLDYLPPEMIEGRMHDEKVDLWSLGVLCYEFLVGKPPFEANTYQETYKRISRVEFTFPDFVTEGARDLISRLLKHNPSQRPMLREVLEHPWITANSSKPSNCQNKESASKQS
PROTOCOL DESCRIPTION: Inhibition of aurora A kinase at 10 uM
READOUT NAME: inhibition (%)

Suppose we examine the compound CN(C)c1ccc(-c2nc3cc(-c4cccnc4)cnc3[nH]2)cc1 ; what inhibition value has been reported?
28

Please report the recorded inhibition for CN(C)c1ccc(-c2nc3cc[nH]cc-3n2)cc1 .
35

Return reported inhibition; argument: N#Cc1ccc(-c2nc3cccnc3[nH]2)cc1
38
